Listing: EC50 of selected binders
# TARGET ENTITY: T1, Full-length human TIGIT on CHO-K1 cells (CHO-K1 human TIGIT) (human, UniProt Q495A1 22-244)
# T1 construct: NCBI XP_024309156.1; the entry includes the signal peptide (limits not recoverable); The strain (high, medium, low) is named under assay; also called high expression strain 1D2; medium expression strain 2D10
# T1 sequence: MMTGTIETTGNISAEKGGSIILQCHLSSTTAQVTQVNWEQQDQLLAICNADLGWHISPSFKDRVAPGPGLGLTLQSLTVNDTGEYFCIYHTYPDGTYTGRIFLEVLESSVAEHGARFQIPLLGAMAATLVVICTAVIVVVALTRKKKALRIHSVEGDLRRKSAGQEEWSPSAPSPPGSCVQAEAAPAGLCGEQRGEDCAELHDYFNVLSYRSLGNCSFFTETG
# EXPERIMENT NOTES: cell binding, CHO-K1 human TIGIT high expression strain
Supply the numeric figure in pM, leaving out any unit text.

Solved cases (2 shown):
# BINDER, EC50 [pM]
records = [
    ("TIGIT-CHI-006 (antibody, V domains shown, Human-mouse chimeric antibody) VH: EVQLQESGPGLAKPSQTPSLTCSVTGYSMTSDYWNWIRKFPGNKLEYMGYISYSGRTYYNPSLKSRISITRDTSKNQFYLQLNSVTTEDTATYYCARGDYSNYGGAMYDWGQGTSVTVSS VL: DIVMTQSHKFMSTSVGDRVSITCRASQGVSTTIAWYQQKPGQSPKLLIYSASYRYTGVPDRFTGSGSGTDFTFTISGVQAEDLAVYYCQQYYSSPFTFGGGTKLEIK", 29.9),
    ("TIGIT-002-H4L3 (antibody, V domains shown, Humanized anti-TIGIT antibody) VH: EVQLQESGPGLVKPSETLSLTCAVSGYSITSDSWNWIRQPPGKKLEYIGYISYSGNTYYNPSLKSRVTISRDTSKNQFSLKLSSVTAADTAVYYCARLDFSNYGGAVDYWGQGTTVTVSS VL: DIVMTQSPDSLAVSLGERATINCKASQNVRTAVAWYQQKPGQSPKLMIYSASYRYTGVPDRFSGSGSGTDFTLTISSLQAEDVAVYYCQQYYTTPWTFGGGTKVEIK", 24.9),
]

Query: Give recorded EC50. TIGIT-006-H5L2 (antibody, V domains shown, Humanized anti-TIGIT antibody) VH: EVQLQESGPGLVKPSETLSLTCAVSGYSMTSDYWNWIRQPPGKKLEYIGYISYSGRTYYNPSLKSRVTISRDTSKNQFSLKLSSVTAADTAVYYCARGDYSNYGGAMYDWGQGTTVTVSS VL: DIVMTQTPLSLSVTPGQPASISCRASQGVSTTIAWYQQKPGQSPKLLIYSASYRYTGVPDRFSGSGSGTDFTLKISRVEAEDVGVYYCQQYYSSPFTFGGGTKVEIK
Result: 23.9
